# collection of IC50 values tested on cereblon (CRBN) (Homo sapiens, UniProt Q96SW2)
# Sequence (Q96SW2 whole entry): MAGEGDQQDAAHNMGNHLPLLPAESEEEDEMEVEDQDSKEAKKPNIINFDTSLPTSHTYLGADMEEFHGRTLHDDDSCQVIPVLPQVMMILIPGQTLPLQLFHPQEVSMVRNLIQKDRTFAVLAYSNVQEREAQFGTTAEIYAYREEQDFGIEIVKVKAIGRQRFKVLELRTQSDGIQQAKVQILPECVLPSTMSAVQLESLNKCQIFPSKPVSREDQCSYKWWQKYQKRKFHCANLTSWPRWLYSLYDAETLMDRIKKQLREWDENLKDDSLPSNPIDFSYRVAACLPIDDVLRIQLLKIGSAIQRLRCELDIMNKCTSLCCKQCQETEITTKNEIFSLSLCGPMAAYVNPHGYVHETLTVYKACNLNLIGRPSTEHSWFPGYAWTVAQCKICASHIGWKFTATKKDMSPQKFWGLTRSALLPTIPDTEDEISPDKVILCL
Give your result in nM as a bare value.

COMPOUND	IC50 [nM]
Cc1oc2nc1-c1nc(c(CCCNC(=O)CCOCCOCCOCCOCCNc3cccc4c3C(=O)N(C3CCC(=O)NC3=O)C4=O)o1)-c1nc(co1)C(=O)N[C@@H](CCCCN)c1nc(co1)-c1nc(co1)-c1nc(co1)C(=O)N[C@H]2CCCCN (some centres unmarked) [2a]	90

Data request: IC50 lookup needed for Cc1oc2nc1-c1nc(c(CCCNC(=O)CNc3cccc4c3C(=O)N(C3CCC(=O)NC3=O)C4=O)o1)-c1nc(co1)C(=O)N[C@@H](CCCCN)c1nc(co1)-c1nc(co1)-c1nc(co1)C(=O)N[C@H]2CCCCN (some centres unmarked) [1a] , thanks.
Data returned: 61

###

System: NRAS (RNA, G4) UGUGGGAGGGGCGGGUCUGGGUGC
Test: fluorescence polarization (intrinsic pomalidomide fluorescence)
Conditions: 100 mM KCl; 10 mM Li-cacodylate, pH 7.4; ligand 0.2 µM; fit assumes two sites per G4; per site
QUANTITY_KIND: Kd

Reference set, count: 3
COMPOUND	Kd
Cc1oc2nc1-c1nc(c(CCCNC(=O)CNc3cccc4c3C(=O)N(C3CCC(=O)N(C)C3=O)C4=O)o1)-c1nc(co1)C(=O)N[C@@H](CCCCN)c1nc(co1)-c1nc(co1)-c1nc(co1)C(=O)N[C@H]2CCCCN (stereo partly shown)	10 ± 5 nM
Cc1oc2nc1-c1nc(c(CCCNC(=O)CCOCCOCCOCCOCCNc3cccc4c3C(=O)N(C3CCC(=O)NC3=O)C4=O)o1)-c1nc(co1)C(=O)N[C@@H](CCCCN)c1nc(co1)-c1nc(co1)-c1nc(co1)C(=O)N[C@H]2CCCCN (stereo partly shown)	68 ± 56 nM
Cc1oc2nc1-c1nc(c(CCCNC(=O)CCOCCOCCOCCOCCNc3cccc4c3C(=O)N(C3CCC(=O)N(C)C3=O)C4=O)o1)-c1nc(co1)C(=O)N[C@@H](CCCCN)c1nc(co1)-c1nc(co1)-c1nc(co1)C(=O)N[C@H]2CCCCN (stereo partly shown)	96 ± 28 nM

We next turn to a different compound, shown below.
Data request: Kd lookup needed for Cc1oc2nc1-c1nc(c(CCCNC(=O)CNc3cccc4c3C(=O)N(C3CCC(=O)NC3=O)C4=O)o1)-c1nc(co1)C(=O)N[C@@H](CCCCN)c1nc(co1)-c1nc(co1)-c1nc(co1)C(=O)N[C@H]2CCCCN (stereo partly shown) , thanks.
Data returned: 65 ± 2 nM

###

Reported Kd is given for each of the following molecules.
Tested on: telo24 (DNA, G4) TTAGGGTTAGGGTTAGGGTTAGGG
Test: fluorescence polarization (intrinsic pomalidomide fluorescence)
Details: 100 mM KCl; 10 mM Li-cacodylate, pH 7.4; ligand 0.2 µM; fit assumes two sites per G4; per site

MOLECULE	EXPERIMENTAL_VALUE
Cc1oc2nc1-c1nc(c(CCCNC(=O)CCOCCOCCOCCOCCNc3cccc4c3C(=O)N(C3CCC(=O)NC3=O)C4=O)o1)-c1nc(co1)C(=O)N[C@@H](CCCCN)c1nc(co1)-c1nc(co1)-c1nc(co1)C(=O)N[C@H]2CCCCN (stereo partly shown) [2a]	356 ± 210 nM

Data request: Kd lookup needed for Cc1oc2nc1-c1nc(c(CCCNC(=O)CNc3cccc4c3C(=O)N(C3CCC(=O)N(C)C3=O)C4=O)o1)-c1nc(co1)C(=O)N[C@@H](CCCCN)c1nc(co1)-c1nc(co1)-c1nc(co1)C(=O)N[C@H]2CCCCN (stereo partly shown) , thanks.
Data returned: 33 ± 17 nM

Data request: Input Cc1oc2nc1-c1nc(c(CCCNC(=O)CNc3cccc4c3C(=O)N(C3CCC(=O)NC3=O)C4=O)o1)-c1nc(co1)C(=O)N[C@@H](CCCCN)c1nc(co1)-c1nc(co1)-c1nc(co1)C(=O)N[C@H]2CCCCN (stereo partly shown) [1a]
Data returned: 108 ± 75 nM

Data request: Input Cc1oc2nc1-c1nc(c(CCCNC(=O)CCOCCOCCOCCOCCNc3cccc4c3C(=O)N(C3CCC(=O)N(C)C3=O)C4=O)o1)-c1nc(co1)C(=O)N[C@@H](CCCCN)c1nc(co1)-c1nc(co1)-c1nc(co1)C(=O)N[C@H]2CCCCN (stereo partly shown)
Data returned: 155 ± 29 nM

Value source: paper PMC12959348
